- Test system: K4 kissing-loop RNA reporter
- Protocol: apparent KD of K4 kissing-loop reporter; higher = weaker reporter binding
- Study Conditions: Eterna round: R107; input ligand: none
Label true when apparent KD of K4 kissing-loop reporter is at or above 300 nM; anything below gets false.

Sequence Text	Discrete Label
AGGAUCCGUCGACAAAAGUCGACAUAAACCAAGGAUAUGACGAAAGUCAGAAGGUGGUCAUAAGGCCAGUGAUGUUGGUGGAUCC [FmnA 12 #SwitchBubble #K4Late]	true
UUACCAAGUGAUGUUUGGAAAUAUCCUAGGCAGGAUAUGCGGAAACGCAGAAGGGCCACCUUAUAGUGAAGGAAACUUCGCUAUU [Ex FMN A 2]	false
GCAGUGAUGUUGCGGAUGUACAGUGGGAUACGAGGACCGGUACGGCCGCCACUCGUACAGAACAAGCUAAUACAUCGAUAGGUGA [XII]	true
UGUCAUUGGUCGGCCGCCACUUCGUGUAGAGUGAUGUUUUGUAGGACGGAUCGAAAGAUCUGUCGAAGGACCGGGACCGAUGACU [FiskerMod 18 - Jieux - Same State - Tryptophan B]	true
AGGAUCACGUCAGUGAUGUUGACAAGAGAUACCAGAGACGAAAGUCUCCCUUGGCAGCUCAUCGUGAUCCGUGACAAAGGUCACA [Omei KL hio A SS C v3]	false
AAGGGCUAGGCGGCCGCCACUGGUCGUGAACACAUACGAGCCAGUGAUGUUGGUAUUGUGUGCGGCAGGACCGGGCCUAGCCGAA [Exclusion - Tryptophan B (Freestyle 24)]	true
GCAUGCAUGGCAGGAUAUAAUCUGGAGUGAUGUUCCUUUAACCUUUCGAACGGCGAGCCAGGUUGAUUAGAAGGGCCAUGCAUGC	true
UUAUAUUUUAUAUUUAGUAGAGCUCUCGCUCGAGGACCGGUACGGCCGCCACUCGAGUGAUGUUCGAGUGGGAGAGCUCUACAUU [AK3.3 EXC Tryptophan A]	false
UAGACCAGUGAUGUUGGUUCCAAGACGGAUACCAGACUGGCAGAAGUCCCUUGGCAGCUGUAGACCUUGUGAGCUACAAGGUCGG [Theo A SS t2]	true
UUAUUAAUAACAGAUACCAGUCCAGAAUGAAAACUAUAGUGAUGUUAUAAUAAAGGGAAGGACCCUUGGCAGCUGUAAUAUAUUU [AstrosSSTheB#2]	true
UGACUGGAUGGAAGGAGCGCUAAACUCCUAGUGAUGUUAGGGACACGAGACAAAGUCUCGAGGCAGGUAGGUCGCCAUCUAGUCU [FiskerMod 7 - Jieux - Same State - Arginine B]	false
AAUUCAGCUAGUGAUGUUAGCGUAGAGUGCAAGGAUAUCCCUGUCAGGAGAAGGUGCGUAGAACGUUUGCCAUCAGAUUGUCCCA [theeternabot_exclusion_KL_FMN_A_48]	false
UUAGGAGUGGGAGGAUAUCCUAAUGUGGGUGAUGUUAGUGAUGUUGAAAGUGUAGUGAUGUUGUGCGGAGAAGGUCCAGUGUUGA [BDazzled - #11 - Exc. FMN B]	false
AGAGUUAUGCGAGGAUAUGCGGUUAGUACUCAAAGAGUACUAACGGCAGAGUGAUGUUCUGUGAAAGCAGAAGGUGCAUAACUCA [Omei KL FMN B SS B v9]	true
UGGAGUUGACGAAAAGUCAACUCCCGAGAAGGAGCGGACGAAAGUCCAGGUAGGUCGCUCACUACCAGUGAUGUUGGUACUAAAA	false
GUUACGCAUGGAAGGAGCGCACUCCGAUUGAUCGACACAGUGAUGUUGUGGUUCGUUCGAAUGCAGGUAGGUCGCCAUGUGUAAC [Ex Arginine B K4 17]	false
AAUUUAUUAACUGAUACCAGACUUAAUAAAUUUUAAAUCACUAGUGAUGUUAGUGAAUAUGUCCCUUGGCAGCAGUAUUUAUUAA [JR_SSTheophyB_Sub023]	false
GCCUUAUAUCGAGCUACAGCUCGAUUUGGUCGAGGACCGGUACGGCCGCCACUCGAAUGAUAGUGAUGUUAUCAUUAUGGCCUAA [JR_ExcTryptoA_Sub022]	false
UUACGAGUGAUGUUCGAAUAAAUCCAUUCAGAGGAUAUAGUAUUAACUAGAAGGCUGAAACCAACUUCGAGUCAUGUUCGAGGAU [Same State FMN A GF 2]	false
AUUCAUUUCAGAGGAUAUCGCUGGAGAGUGAUGUUCUCCCAUAGUCAGUGAUGUUGGCUAGCUAUGCGAGAAGGCUGUGGGUGGA [Same State FMN B GF 28]	true
GCCUAGCAGGGAAGGAGCGCCAUAUAAUUAAAAGUUAAUUAAUGAGUGAUGUUCAAAUAAUGGCAGGUAGGUCGCCCUGCUAGGC [KL-SSArg B9]	true
UAUAUAGUGAUGUUAUAUAUACAUUCGGAAGGAGCGUGGUAAAACACAGGUAGGUCGCUGAAAUAAUUAAAAUAAUUUUCUUUUU [AstrosSSArgA#1]	false

----------
- System: K4 kissing-loop RNA reporter;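 further: bound reporter read as fluorescence of individual clusters on recovered sequencing chips by microscopy, with normalized cluster intensities fitted with a binding model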
- Protocol: apparent KD of K4 kissing-loop reporter; higher = weaker reporter binding
- Study Conditions: Eterna round: R107; input ligand: tryptophan 2.4 mM
Assay Metric: apparent KD of K4 kissing-loop reporter (nM)

Sequence Text	Observed Result
UCUUGUUCAUAGUGAUGUUAUGAGCUUAGAAAGGAUAUGAUCAACAUCAGAAGGUUCAAGGAUUCCCGACUCCAACUUCGGUUUC [theeternabot_sameState_KL_FMN_A_43]	332
UUAGCUCUAUAGAGCAAGAGGUAUACUGAUACCAGAGGCUAUAGCCUCCCUUGGCAGCGGAUCGAGUGAUGUUCGUAACCUCAUU [AK4.5 SS Theophylline A]	433
UAUCAGAUUACUGAUACCAGUCUAAAGACAGUGAUGUUGUCUGAUCGACCACGAUCCAAGGACCCUUGGCAGCAGUGUACUAUUC [#30 K4 Theophylline B Same State]	191
GGAGAGAACUGAAGGAGCGCCAAGAGAGAAGGAAAUAUAGUGAUGUUAUAUAAGAGAGAGAGGCAGGUAGGUCGCAGAGGGAGGA [#03 K4 Arginine B Exclusion]	112
ACCUACCAUUAGUGAUGUUAAUGGACGGAAGGAGCGCAGAUAUCUGCAGGUAGGUCGCCGAAGGCUAGACAUUGUCUAGCCAUUU [AK1.3 SS Arginine A]	180
AUUAAUUUCAGAGGAUAUCGUUAUUUUUUAUAUUUUAUUCAUUUAUGCAGUGAUGUUGCUAUUAAUCGAGAAGGCUGAUUUAUAA [JR_ExcFMNB_Sub003]	49.4
AGUGAUGUGGGAAGGAGCGGUACAUGACUUCAGUGAUGUUGAAGUGAUGAUUUAGUGAUGUGCCAGGUAGGUCGCCUAGAUGUUA [KL-XARG-B7]	51
ACCUACGAUCACGAAAGUGAUUGUAGGAUCUAGGAUAUGCUGAAGAGCAGAAGGAGAGUGAUGUUCUCAUCUCACGAAAGUGAGA [whbob_Ex_FMNA__2th190]	221
UAACUCUUGCAGUGAUGUUGCAAGUAAGCUCAGGAUAUCAGGAAACUGAGAAGGGAGUAUCCUGAGCUUCUGCAAGAGCUCAGAA [KL-SSFMN-A5]	97.3
AGUGCCUGCCUUAGCCUUCCCAUCAACUUCCGAGGACCGGUACGGCCGCCACUCGGCCAUCGGGCUAGUGAUGUUACCUGGUGGA [theeternabot_sameState_KL_Trp_A_50]	224
GCGGGCCCGGGAGGAUAUGAGUCGAGUGAUGUUCGGCGGUCCAUGCCGUUGCGGCGUUAAGCCCUUUUAGAAGGCCCGGGCCCGC [#2 Exclusion - FMN B Attempt #2 (HarryS)]	184
UAUUUAUUAACUGAUACCAGACUUAAUGAAUUGUAAAUUACUAGUGAUGUUAGUGAAUCUGUCCCUUGGCAGCAGUAUUUAUUAA [JR_Nu_ExcTheophyB_Sub028]	85.1
UUUGGUUUCUCGGCCGCCACUCGUUGUCUAUCGGCUUCAGGGAUAUAGUGAUGUUAUGUAUAGAAGAGGACCGGGAGAAGGUUCU [ExTryptoB.Dx]	182
CCUCACGUAGGACUAGUGAUGUUAGACUACCGAGGACCGGUACGGCCGCCACUCGUCGUACAAGAUAACCUUCCGCCAGUAUACG	140
GCAGUGAUGUUGCGGAUGUACAGUGGCGUGCGAGGACCGGUACGGCCGCCACUCGUACAGCACAAGCUAAUACAUCGAUAGGUGA [whbob_SS_Tryp_A_m2]	430
UAAUAAAUUCCAGCGAUAUCGCUCUUCGAAGGAGCGGGCGAAGGUCCAGGUAGGUCGCGGAGAGUGAUGUUCUUUGCGGCGCUGG [whbob_Ex_Arginine_A_2t135]	273
AAAUAAUGCAGUCACCCAGUGAUGUUGGAAGGAGCGUGCGAAAGCACAGGUAGGUCGCCAAUAAUGAUAAAGUUCAGUGGCUUUA [JR_Nu_ExcArginiA_Sub030]	659
GUCUCAAAAGAGGCAAGCACUCACGAGGACAAGGAUAUCAUAUCAAUGAGAAGGUGUCCUCGUCCUUAGUGAUGUUAAGGAGUGC [Omei KL FMN A SS E v3]	330
AAAUUUUCAAGUGAUACCAGACAUUUCUAUUACAUUAAUAUAGCUAAGUGAUGUUUAGCAGUCCCUUGGCAGCACUAUUUAAUUA [JR_SSTheophyB_Sub014]	216
AGGUACAAAAGUACCGCUAGAUCCACGGAAGGAGCGGCCGAAAGGCCAGGUAGGUCGCCGGGCAGUGAUGUUGCCGGAUCUAGCA [Omei KL Arginine A SS A v2]	169
UGACUGGAUGGAAGGAGCGCUAAACUCCUAGUGAUGUUAGGGAUAUGAGGCAAAGCCUCGAAGCAGGUAGGUCGCCAUCUAGUCU [FiskerMod 20 - Jieux - Same State - Arginine B]	156
AGACAUAUGACUGUAUGUUUCCAAGGUGUCAAGGAUAUAGUAAACACUAGAAGGUGAGAUCACAGGAGUGAUGUUCGAAAAUGGA [theeternabot_sameState_KL_FMN_A_14]	248
UGUCAUGGAAACAUGAACGUUGAUGUUCGACGAGGACCGGUACGGCCGCCACUCGAGUAAUAGUCAGUGAUGUUGACUUGUCUAA [KL-SSTryp-A form1 sub3]	76.5
